Source listed as paper doi:10.1101/2024.10.30.620795.

# assay_system: T1, A*02/YLQ peptide on A*02/YLQ (human)
# T1 peptide: YLQPRTFLL
# test_method_notes: activation reporter or marker

binder: 6688 (TCR) alpha TRAV12-1 TRAJ36 CDR3: CVVNKEDNLFF beta TRBV9 TRBJ2-2 CDR3: CASSGGIETSGNTGELFF
binding result: recognises

binder: 7411 (TCR) alpha TRAV12-1 TRAJ45 CDR3: CVVNRADGLTF beta TRBV12-3 TRBJ2-2 CDR3: CASTDGNTGELFF
binding result: recognises

binder: 6579 (TCR) alpha TRAV12-1 TRAJ10 CDR3: CVVNSPEGGGNKLTF beta TRBV7-2 TRBJ1-1 CDR3: CASSSLNSLEAFF
binding result: recognises
